assay name: in vitro
conditions used: human, hela cells, % viability
Rule: measured viability at 28.5 h, 10 µM below 90% gets Yes; anything equal to or greater than 90% gets No.

Input Cc1ccc2c(c1)c(=O)cc(C(F)(F)F)n2CCNC(=O)C1CC1 [CBK284831] ; condition: viability at 28.5 h, 10 µM strictly below 90%. Does it hold? No

What about this compound? Cc1ccc2[nH]c(-c3cncn3C(C)CN3CCOCC3)c(C)c2c1 (centres unmarked) [CBK281794] No

What about this compound? C(=N\c1ccc(Cc2ccncc2)cc1)/c1ccc(/C=N/c2ccc(Cc3ccncc3)cc2)cc1 [CBK262137] No

What about this compound? CC(C)Cc1csc(C2CN3CCCC3CO2)n1 (centres unmarked) [CBK304807] Yes

* * *

assay name: in vitro
conditions used: human, hela cells
endpoint name: viability at 28.5 h, 10 µM
I'd appreciate it if you wrote the number followed by its unit.

Form field: reported viability at 28.5 h, 10 µM of CS(=O)(=O)c1ccc(-c2ccc3c(c2)CCN(C2CCN(C(=O)Oc4ccccc4)CC2)C3)cc1 90.1%

What about this compound? O=C(NCCc1ccccc1)c1ccc(N2CCN(C(=O)c3ccccc3C(F)(F)F)CC2)nn1 83.2%

What about this compound? CNC(=O)Oc1ccc(C)cc1C(=O)N(C)C 111%

What about this compound? O=C(CC(c1ccccc1)c1c(O)c2ccccc2oc1=O)c1ccc(-c2ccc(Br)cc2)cc1 (stereo not drawn) 91.8%

What about this compound? O=C(O)c1n[s+][n-]c1-c1cc([N+](=O)[O-])cc([N+](=O)[O-])c1O 97.2%

What about this compound? CC1CN(C(=O)COc2ccccc2OC(=O)N(C)C)CC(C)O1 (stereo not drawn) 121%

What about this compound? CS(=O)(=O)c1ccc(-c2ccc3c(c2)OCCN(C2CCN(C(=O)Oc4ccccc4)CC2)C3)cc1 79.9%

What about this compound? NC(=O)COC(=O)COc1ccc(Cl)cc1Cl 85.8%

What about this compound? CC(C)CN(/C=N/c1nc(OC(=O)N(c2ccccc2)c2ccccc2)nc2c1ncn2C1CC(O)C(CO)O1)CC(C)C (stereo not drawn) 93%

What about this compound? COCCn1cc(C(=O)N2CCCC(CN(C)C)C2)c2ccccc21 (stereo not drawn) 91.5%

What about this compound? Nc1ncnc2c1ccn2[C@@H]1O[C@H](CO)[C@H](O)C1O (stereo partly drawn) 0%

What about this compound? CC1CN(C(=O)Oc2ccccc2)C(C)CN1CCCC(c1ccc(F)cc1)c1ccc(F)cc1 (stereo not drawn) [CBK024993C] 87.4%

What about this compound? CN(C)[C@@H]1C[C@H](C2(c3ccccc3)OCCO2)CC[C@H]1N(C)C(=O)Cc1ccc(Cl)c(Cl)c1 87.8%

What about this compound? O=C(O)c1cc(NC(=O)c2ccc3c(c2)C(=O)N(Cc2ccco2)C3=O)cc(C(=O)O)c1 101%

What about this compound? O=P(O)(O)/C=C(\Cl)c1ccccc1 97.8%

* * *

assay name: in vitro
conditions used: human, hela cells, % viability
Provide the recorded viability at 28.5 h, 10 µM for the entries that follow.
Supply the numeric figure in %, leaving out any unit text.

Form field: reported viability at 28.5 h, 10 µM of O=C(c1cccs1)N1Cc2ccccc2OC2(CCOCC2)C1 [CBK284942] 103

What about this compound? O=C(O)CCCCCNc1ccc(C(F)(F)F)cc1[N+](=O)[O-] [CBK286707] 83.3

What about this compound? Cc1cc2ccccc2n2c(=O)n(CCNC(=O)C(C)C)nc12 [CBK282876] 84.2

What about this compound? O=C(Nc1nnc(-c2ccc3c(c2)OCCO3)o1)c1cccc(F)c1 [CBK287402] 101

What about this compound? O=C(O)c1cccc(Sc2cc(C(F)(F)F)ccn2)c1 [CBK093590] 88.7

What about this compound? Cc1ccc(S(=O)(=O)Nc2ccnc(Cl)n2)cc1 [CBK067661] 90.7

What about this compound? CC(=O)NCc1cccc(-c2cc(C(=O)NCC3CN(Cc4ccccc4)CCO3)cnc2-c2ccc(Cl)cc2)c1 (stereo not drawn) [CBK164416T] 88.5

What about this compound? O=C(O)c1cccc(NS(=O)(=O)c2ccc3c(c2)CN(C(=O)C(F)(F)F)CC3)c1 [CBK155709] 92.2

What about this compound? O=C(Nc1ccccc1)c1onc2c1CCCC2 [CBK058703] 108

What about this compound? CCC(Cc1ccccc1C)c1cc(O)c(C(c2ccccc2)C2CC2)c(=O)o1 (stereo not drawn) [CBK016783] 98.3

What about this compound? CC(=O)c1ccc(NC(=O)C(C)SCc2ccc(C)cc2)cc1 (stereo not drawn) [CBK296616] 96.7

What about this compound? C[C@@H]1C(=O)O[C@H]2[C@H]1CC[C@@]1(C)Cc3sc(NC(=O)CN(C)C)nc3[C@@H](C)[C@H]21 [CBK289431] 87.3

What about this compound? O=S(=O)(c1ccc(C(F)(F)F)cc1)c1ccc2nccc(N3CCNCC3)c2c1 [CBK200016C] 91.2

What about this compound? Clc1ccc(COc2nccnc2OC2CCN(CC3CC3)CC2)cc1Cl [CBK083123T] 92.4

What about this compound? N#Cc1sc(N)c2ccc(-c3ccncc3)nc12 [CBK019761] 105

What about this compound? S=C(NCc1cccs1)NC1CC1 [CBK008520] 86.4

What about this compound? Sc1nnc(C2CCCC2)n1CC1CCCO1 (stereo not drawn) [CBK288413] 107

What about this compound? Cc1ccc(-c2cc(-c3ccccc3O)nc(N/N=C/c3cccnc3)n2)cc1 [CBK262308] 85.2

What about this compound? O=C(O)CSCC(=O)N(Cc1ccccc1)c1nc(-c2ccccc2)c(-c2ccccc2)s1 [CBK296138] 97.5

What about this compound? O=C(NCCOc1ccccc1)c1nn(-c2ncccn2)c2ccccc12 [CBK048494] 81

What about this compound? Cc1noc(C)c1S(=O)(=O)Nc1c(C(=O)O)sc2ncccc12 [CBK049988] 99.5

What about this compound? COc1ccc(N2CCN(c3cc(-c4ccc(CCC(=O)O)cc4)ncn3)CC2)cc1OC [CBK091030] 94.1

What about this compound? O=c1c2snc(-c3ccc(F)cc3)c2ncn1C1CC1 [CBK282859] 76.9

What about this compound? O=S(=O)(c1ccc(-c2ccccc2)cc1)N1CCCN(Cc2cccnc2N2CCOCC2)CC1 [CBK063127] 99.5

What about this compound? CC(SCc1ccccc1)C(=O)NC(C)c1ccccc1 (stereo not drawn) [CBK263772] 103

What about this compound? C=CCN(C(=S)NCc1ccc2c(c1)OCO2)C1CCCCC1 [CBK200037] 97.9

What about this compound? Cc1ccc(-n2c(C)c(C)c3c(NCCO)cnnc32)cc1 [CBK288162] 101

What about this compound? CCOC(=O)C(C)n1nc(CC)n2c(cc3ccsc32)c1=O (stereo not drawn) [CBK284127] 103

What about this compound? O=C(c1cccnc1)C1CCN(C(=O)c2cccs2)CC1 [CBK283528] 102

What about this compound? Cc1cc(C)nc(SCCCn2c(=O)[nH]c3ccccc32)n1 [CBK264485] 112

What about this compound? COc1ccc(OC)c(-n2c(SCC(=O)N3CCC(C(=O)O)CC3)nc3ccccc3c2=O)c1 [CBK296981] 87.5

What about this compound? Cc1ccc(-n2c(C)cc(/C=N/NC(=O)c3ccc(CN4CCOCC4)cc3)c2C)cc1 [CBK263324] 86.8

What about this compound? COc1cccc(CN(Cc2ncc[nH]2)Cc2ccco2)c1 [CBK282496] 98.7

What about this compound? COc1ccc(N2C(=O)CC(Sc3ncccc3C(=O)O)C2=O)cc1 (stereo not drawn) [CBK263387] 95.5

What about this compound? O=C(CSc1nc2ccccc2[nH]1)n1c2c(c3ccccc31)CCCC2 [CBK263945] 92.8

What about this compound? O=C(O)C1CCCCC1C(=O)NCCCN1CCOCC1 (stereo not drawn) [CBK286903] 83.4

What about this compound? O=C(NCc1cccc2ccccc12)N1CCN(c2ccccc2)CC1 [CBK155175] 89.1

What about this compound? N=C(N)SCCCCSC(=N)N [CBK278304B] 102

What about this compound? COc1ccc(C)cc1S(=O)(=O)N(CC(=O)O)c1ccc(C)c(Cl)c1 [CBK269655] 83.3
